These measurements were taken from ChEMBL document CHEMBL1143979.

Species on record: Homo sapiens
Assay: Selectivity index, ratio for human adenosine A2A receptor to human adenosine A2B receptor
Catalogue of Ratio values
Quantity: Ratio

> print(dat)
                                    molecule  recorded.value
 1  CCCn1c(=O)n(C)c(=O)c2[nH]c(-c3ccc(OC(C)(C)C(=O)N4CCN(c5ccccc5)CC4)cc3)cc21             135
 2  CCCn1c(=O)c2[nH]c(-c3ccc(OCC(=O)N4CCN(c5c(Cl)cncc5Cl)CC4)cc3)cc2n(CCC)c1=O             9.8
 3  Cn1c(=O)c2[nH]c(-c3ccc(OCC(=O)N4CCN(c5ccc(C#N)cc5)CC4)cc3)cc2n(C)c1=O              56
 4  CCCn1c(=O)c2[nH]c(-c3ccc(OC(C)C(=O)N4CCN(c5ccccc5)CC4)cc3)cc2n(CCC)c1=O (stereo unspecified)            36.3
 5  CCCn1c(=O)c2[nH]c(-c3ccc(OCC(=O)N4CCN(Cc5ccccc5)CC4)cc3)cc2n(CCC)c1=O            41.7
 6  COc1cc(OCC(=O)N2CCN(c3ccccc3)CC2)ccc1-c1cc2c([nH]1)c(=O)n(C)c(=O)n2C             219
 7  COc1ccc(C2CCN(C(=O)COc3ccc(-c4cc5c([nH]4)c(=O)n(C)c(=O)n5C)cc3OC)CC2)cc1            28.2
 8  COc1ccc(N2CCN(C(=O)COc3ccc(-c4cc5c([nH]4)c(=O)n(C)c(=O)n5C)cc3)CC2)cc1            12.9
 9  COc1cc(OCC(=O)N2CCc3ccccc3C2)ccc1-c1cc2c([nH]1)c(=O)n(C)c(=O)n2C             275
10  Cc1ccc(N2CCN(C(=O)C(C)Oc3ccc(-c4cc5c([nH]4)c(=O)n(C)c(=O)n5C)cc3)CC2)cc1 (stereo unspecified)             213
11  CCn1c(=O)c2[nH]c(-c3ccc(OCC(=O)N4CCN(c5ccccc5)CC4)cc3)cc2n(CC)c1=O            26.9
12  CCCn1c(=O)c2[nH]c(-c3ccc(OCC(=O)N4CCN(c5ccccc5Cl)CC4)cc3)cc2n(C)c1=O             3.2
13  CCCn1c(=O)n(C)c(=O)c2[nH]c(-c3ccc(OCC(=O)N4CCN(c5ccc(F)cc5)CC4)cc3)cc21            30.9
14  CCCn1c(=O)c2[nH]c(-c3ccc(OCC(=O)N4CCN(c5ccccc5)CC4)cc3)cc2n(CCC)c1=O            33.8
15  Cn1c(=O)c2[nH]c(-c3ccc(OCC(=O)N4CCN(c5ccccc5)CC4)cc3)cc2n(C)c1=O            20.4
16  CCCn1c(=O)c2[nH]c(-c3ccc(OCC(=O)N4CCN(C(=O)OCc5ccccc5)CC4)cc3)cc2n(CCC)c1=O             3.9

* * *

pKi: −log10 of the molar value.
Let's go through some pKi measurements on UniProt:P29274 together.
Sequence (P29274 whole entry): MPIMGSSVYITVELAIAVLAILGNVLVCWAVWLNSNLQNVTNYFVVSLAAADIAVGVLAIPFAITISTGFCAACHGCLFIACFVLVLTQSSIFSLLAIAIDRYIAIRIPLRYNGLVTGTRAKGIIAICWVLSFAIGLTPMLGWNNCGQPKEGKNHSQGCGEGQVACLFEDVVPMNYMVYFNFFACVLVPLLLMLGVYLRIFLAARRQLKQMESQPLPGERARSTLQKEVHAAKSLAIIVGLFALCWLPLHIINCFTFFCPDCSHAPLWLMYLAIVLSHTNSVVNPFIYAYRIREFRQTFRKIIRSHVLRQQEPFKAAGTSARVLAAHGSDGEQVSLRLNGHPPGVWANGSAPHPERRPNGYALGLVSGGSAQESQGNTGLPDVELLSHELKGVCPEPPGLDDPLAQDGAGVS
Quantity: pKi

> print(dat)
                                    compound  quantity  recorded.value
 1  COCCn1c(=O)c2[nH]c(-c3ccc(OCC(=O)N4CCN(c5ccccc5)CC4)cc3)cc2n(CCOC)c1=O       pKi            6.40
 2  CCCn1c(=O)n(C)c(=O)c2[nH]c(-c3ccc(OCC(=O)N4CCC(c5ccccc5OC)CC4)cc3)cc21       pKi            6.39
 3  Cn1c(=O)c2[nH]c(-c3ccc(OCC(=O)N4CCN(c5ccccc5)CC4)cc3)cc2n(C)c1=O       pKi            6.97
 4  Cn1c(=O)c2[nH]c(-c3ccc(OCC(=O)N4CCN(Cc5ccccc5)CC4)cc3)cc2n(C)c1=O       pKi            5.81
 5  CCCn1c(=O)c2[nH]c(-c3ccc(OCC(=O)N4CCC(O)(c5ccccc5)CC4)cc3)cc2n(CCC)c1=O       pKi            5.94
 6  O=C(COc1ccc(-c2cc3c([nH]2)c(=O)n(CC2CC2)c(=O)n3CC2CC2)cc1)N1CCN(c2ccccc2)CC1       pKi            7.31
 7  Cn1c(=O)c2[nH]c(-c3ccc(OCC(=O)N4CCN(c5ncccn5)CC4)cc3)cc2n(C)c1=O       pKi            6.38
 8  Cn1c(=O)c2[nH]c(-c3ccc(OCC(=O)N4CCC(c5ccccc5)CC4)cc3)cc2n(C)c1=O       pKi            6.10
 9  CN1CCN(C(=O)COc2ccc(-c3cc4c([nH]3)c(=O)n(C)c(=O)n4C)cc2)CC1       pKi            6.10
10  Cn1c(=O)c2[nH]c(-c3ccc(OCC(=O)N4CCN(c5ccccn5)CC4)cc3)cc2n(C)c1=O       pKi            6.15
11  CCCn1c(=O)c2[nH]c(-c3ccc(OCC(=O)N4CCN(c5ccccc5)CC4)cc3)cc2n(CCC)c1=O       pKi            6.79
12  CCCn1c(=O)c2[nH]c(-c3ccc(OCC(=O)N4CCN(c5cccc(Cl)c5)CC4)cc3)cc2n(CCC)c1=O       pKi            6.94
13  CCCn1c(=O)c2[nH]c(-c3ccc(OCC(=O)N4CCN(Cc5ccccc5)CC4)cc3)cc2n(CCC)c1=O       pKi            6.59
14  CCCn1c(=O)c2[nH]c(-c3ccc(OC(C)(C)C(=O)N4CCN(c5ccccc5)CC4)cc3)cc2n(CCC)c1=O       pKi            6.58
15  Cn1c(=O)c2[nH]c(-c3ccc(OCC(=O)N4CCN(c5ccc(C(F)(F)F)cc5)CC4)cc3)cc2n(C)c1=O       pKi            6.88
16  CCn1c(=O)c2[nH]c(-c3ccc(OCC(=O)N4CCN(c5ccccc5)CC4)cc3)cc2n(CC)c1=O       pKi            6.16
17  CCCn1c(=O)n(C)c(=O)c2[nH]c(-c3ccc(OCC(=O)N4CCN(c5ccccc5)CC4)cc3)cc21       pKi            6.15
18  Cc1ccc(N2CCN(C(=O)C(C)Oc3ccc(-c4cc5c([nH]4)c(=O)n(C)c(=O)n5C)cc3)CC2)cc1 (stereo not drawn)       pKi            6.41
19  CCCn1c(=O)n(C)c(=O)c2[nH]c(-c3ccc(OCC(=O)N4CCN(c5ccccc5Cl)CC4)cc3)cc21       pKi            5.96
20  CCCn1c(=O)c2[nH]c(-c3ccc(OC(C)C(=O)N4CCc5ccccc5C4)cc3)cc2n(CCC)c1=O (stereo not drawn)       pKi            6.80
21  CC(Oc1ccc(-c2cc3c([nH]2)c(=O)n(C)c(=O)n3C)cc1)C(=O)N1CCN(c2ccccc2Cl)CC1 (stereo not drawn)       pKi            6.13
22  CCCn1c(=O)c2[nH]c(-c3ccc(OCC(=O)N4CCN(c5ccc(C(F)(F)F)cc5)CC4)cc3)cc2n(CCC)c1=O       pKi            6.76
23  Cn1c(=O)c2[nH]c(-c3ccc(OCC(=O)N4CCC(O)(c5ccc(Cl)cc5)CC4)cc3)cc2n(C)c1=O       pKi            6.49
24  Cn1c(=O)c2[nH]c(-c3ccc(OCC(=O)N4CCN(c5ccc(C#N)cc5)CC4)cc3)cc2n(C)c1=O       pKi            6.45
25  CCCn1c(=O)n(C)c(=O)c2[nH]c(-c3ccc(OCC(=O)N4CCC(c5ccc(OC)cc5)CC4)cc3)cc21       pKi            6.40
26  CCCn1c(=O)c2[nH]c(-c3ccc(OCC(=O)N4CCN(C(=O)OCc5ccccc5)CC4)cc3)cc2n(CCC)c1=O       pKi            6.82
27  CCCn1c(=O)c2[nH]c(-c3ccc(OCC(=O)N4CCc5ccccc5C4)cc3)cc2n(CCC)c1=O       pKi            7.03
28  Cn1c(=O)c2[nH]c(-c3ccc(OCC(=O)N4CCc5ccccc5C4)cc3)cc2n(C)c1=O       pKi            6.37

* * *

Species on record: Homo sapiens
Assay: Selectivity index, ratio for human adenosine A2A receptor to human adenosine A2B receptor
Quick rule for you: Ratio at 90 or higher means true (1), lower means false (0).

> print(dat)
                            molecular.string  answer.label
 1  Cn1c(=O)c2[nH]c(-c3ccc(OCC(=O)N4CCC(O)(c5ccc(Cl)cc5)CC4)cc3)cc2n(C)c1=O      true (1)
 2  Cn1c(=O)c2[nH]c(-c3ccc(OC(C)(C)C(=O)N4CCN(c5nc6cc(Cl)ccc6s5)CC4)cc3)cc2n(C)c1=O      true (1)
 3  CCCn1c(=O)c2[nH]c(-c3ccc(OCC(=O)N4CCC(c5ccccc5)CC4)cc3)cc2n(CCC)c1=O     false (0)
 4  CCCn1c(=O)c2[nH]c(-c3ccc(OCC(=O)N4CCC(O)(c5ccccc5)CC4)cc3)cc2n(CCC)c1=O     false (0)
 5  CCCn1c(=O)c2[nH]c(-c3ccc(OCC(=O)N4CCN(C(c5ccccc5)c5ccccc5)CC4)cc3)cc2n(CCC)c1=O     false (0)
 6  Cn1c(=O)c2[nH]c(-c3ccc(OCC(=O)N4CCC(C(=O)c5ccc(F)cc5)CC4)cc3)cc2n(C)c1=O     false (0)
 7  CCCn1c(=O)n(C)c(=O)c2[nH]c(-c3ccc(OCC(=O)N4CCC(c5ccc(OC)cc5)CC4)cc3)cc21     false (0)
 8  COCCn1c(=O)c2[nH]c(-c3ccc(OCC(=O)N4CCN(c5ccccc5)CC4)cc3)cc2n(CCOC)c1=O     false (0)
 9  CCCn1c(=O)n(C)c(=O)c2[nH]c(-c3ccc(OCC(=O)N4CCC(c5ccccc5)(c5ccccc5)CC4)cc3)cc21      true (1)
10  COc1ccccc1N1CCN(C(=O)COc2ccc(-c3cc4c([nH]3)c(=O)n(C)c(=O)n4C)cc2)CC1     false (0)
11  CCCn1c(=O)n(C)c(=O)c2[nH]c(-c3ccc(OCC(=O)N4CCN(c5nc6ccc(Cl)cc6s5)CC4)cc3)cc21      true (1)
12  CCCn1c(=O)c2[nH]c(-c3ccc(OCC(=O)N4CCN(c5nc6ccc(Cl)cc6s5)CC4)cc3)cc2n(CCC)c1=O     false (0)
13  Cn1c(=O)c2[nH]c(-c3ccc(OCC(=O)N4CCN(c5ccccc5Cl)CC4)cc3)cc2n(C)c1=O     false (0)
14  CCCn1c(=O)c2[nH]c(-c3ccc(OCC(=O)N4CCC(c5ccccc5)(c5ccccc5)CC4)cc3)cc2n(CCC)c1=O     false (0)
